# target-or-test-system: Histamine H3 receptor (Cavia porcellus, UniProt Q9JI35)
# Sequence (Q9JI35 whole entry): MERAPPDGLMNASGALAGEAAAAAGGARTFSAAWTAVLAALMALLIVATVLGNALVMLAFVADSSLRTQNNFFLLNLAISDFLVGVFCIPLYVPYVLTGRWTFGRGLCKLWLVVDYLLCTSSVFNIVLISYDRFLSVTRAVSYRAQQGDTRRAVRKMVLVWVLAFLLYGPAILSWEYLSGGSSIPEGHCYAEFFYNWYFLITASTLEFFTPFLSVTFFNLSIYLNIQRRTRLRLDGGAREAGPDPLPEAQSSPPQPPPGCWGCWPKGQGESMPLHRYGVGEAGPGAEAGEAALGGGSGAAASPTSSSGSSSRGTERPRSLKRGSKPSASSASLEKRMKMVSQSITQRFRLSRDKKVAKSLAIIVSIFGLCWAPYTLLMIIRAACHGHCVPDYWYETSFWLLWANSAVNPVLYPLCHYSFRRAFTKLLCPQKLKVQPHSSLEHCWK
# measurement-notes: Histamine H3 radioligand binding assay, guinea pig cortex ([3H]-R-α-methylhistamine)
# Set-up: The cortex was dissected, weighed and homogenised in ice-cold 20 mM Hepes-NaOH buffer; from tissue; host or cells: guinea pig cerebral cortex membranes
# condition-details: guinea pig cortex membranes; [3H]-R-α-methylhistamine 0.1 nM; typical variance ±0.12 log units; read-out: pKI (binding assay) - cortex (converted)
assay-metric: log10(Ki) (log10 of the value in nM)
Log10 applied to Ki; unit prior to transform: nM.

Requested field: log10(Ki). Item: O=S(=O)(CCCCCc1c[nH]cn1)NCc1ccc(C(F)(F)F)cc1 [Example 30]
0.18

Cool, now O=C(CCc1c[nH]cn1)CS(=O)(=O)NCc1ccc(Cl)cc1 [Example 4]
1.79

Cool, now NCCCN(Cc1ccc(Cl)cc1)S(=O)(=O)CCCCCc1c[nH]cn1 [Example 35]
1.26

Cool, now NC(CCCc1c[nH]cn1)CS(=O)(=O)NCc1ccc(Cl)cc1 (stereo not drawn) [Example 40]
4.35

Cool, now O=S(=O)(CCCCc1c[nH]cn1)NCc1ccc(Cl)cc1 [Example 1]
0.42

Cool, now O=S(=O)(CC(O)CCCc1c[nH]cn1)NCc1ccc(Br)cc1 (stereo not drawn) [Example 16]
0.05

Cool, now O=S1(=O)C2C=CC(c3c[nH]cn3)CC2CN1Cc1ccc(Cl)cc1 (stereo not drawn) [Example 42]
3.09

Cool, now O=S(=O)(CC(O)CCc1c[nH]cn1)NCc1ccc(Cl)cc1 (stereo not drawn) [Example 2]
2.44

For the next question, use this molecule.
Requested field: log10(Ki). Item: O=S(=O)(CC(O)CCCc1c[nH]cn1)NCCc1ccc(Cl)cc1 (stereo not drawn) [Example 12]
1.15

* * *

# target-or-test-system: UniProt Q9JI35
# measurement-notes: ileal longitudinal muscle, myenteric plexus functional assay (rightward shift of R-(α)-methylhistamine E/[A] curves, Schild)
# Type: cell-based
# Set-up: the longitudinal muscle layer and adhering myenteric plexus was teased away; from tissue; host or cells: guinea pig ileal longitudinal muscle with myenteric plexus (organ bath)
# condition-details: guinea pig ileum longitudinal muscle myenteric plexus, electrically stimulated; antagonism of R-(α)-methylhistamine; typical variance ±0.15 log units; read-out: pKB (functional assay) - ileum (converted)
Tag: 1 if measured Kb is not below 30 nM, 0 if it is.

Test whether the molecule O=[N+]([O-])CC(CCCc1c[nH]cn1)CS(=O)(=O)NCc1ccc(Cl)cc1 (centres unmarked) records Kb of 30 nM or higher.
0

---
Test whether the molecule O=S(=O)(CCCCCc1c[nH]cn1)CCc1ccc(Cl)cc1 records Kb of 30 nM or higher.
0

Cool, now O=S(=O)(CCCCCc1c[nH]cn1)NCc1ccc(C(F)(F)F)cc1
0

Cool, now O=S(=O)(CCCCCc1c[nH]cn1)N(Cc1ccccc1)Cc1ccc(Cl)cc1
1

Cool, now O=S(=O)(/C=C/CCc1c[nH]cn1)NCc1ccc(Cl)cc1
0

Cool, now CNC(CCCc1c[nH]cn1)CS(=O)(=O)NCc1ccc(Cl)cc1 (centres unmarked)
0

Cool, now O=S(=O)(CCCCCc1c[nH]cn1)NCc1ccc(F)cc1
0

Cool, now O=S(=O)(CCCCCc1c[nH]cn1)Cc1ccc(Cl)cc1
0

Cool, now O=S(=O)(CC(O)CCCc1c[nH]cn1)NCc1ccc(Cl)cc1 (centres unmarked)
0

Cool, now O=S(=O)(/C=C/CCCc1c[nH]cn1)NCc1ccc(Cl)cc1
0

Cool, now NCC(CCCc1c[nH]cn1)CS(=O)(=O)NCc1ccc(Cl)cc1 (centres unmarked)
0

Cool, now CN(Cc1ccc(Cl)cc1)S(=O)(=O)CCCCCc1c[nH]cn1
0

Cool, now O=S(=O)(CCCCc1c[nH]cn1)NCc1ccc(Cl)cc1
0

Cool, now O=S1(=O)C2C=CC(c3c[nH]cn3)CC2CN1Cc1ccc(Cl)cc1 (centres unmarked)
1
